test: Water content of the product of the Examples by the Karl-Fischer method
Assay type: physicochemical
studyConditions: after water absorption (Examples 1-3) or vacuum drying (Examples 4-5)
Attribute: water content of the required product

Example compounds with recorded water content of the required product:
{"columns": ["compound", "result"],
 "data": [
  ["COc1nc(N)nc2c1ncn2[C@H]1CC[C@@H](CO)O1 [Example 5, 6-methoxy-2′,3′-dideoxyguanosine]", "18.5 % (wt %)"],
  ["COc1nc(N)nc2c1ncn2[C@H]1CC[C@@H](CO)O1 [Example 4, 6-methoxy-2′,3′-dideoxyguanosine]", "22.5 % (wt %)"]
]}

Q: Query: water content of the required product; subject: COc1nc(N)nc2c1ncn2[C@H]1CC[C@@H](CO)O1 [Example 1, 6-methoxy-2′,3′-dideoxyguanosine]
Result: 23.5 % (wt %)

Q: Now the same for COc1nc(N)nc2c1ncn2[C@H]1CC[C@@H](CO)O1 [Example 3, 6-methoxy-2′,3′-dideoxyguanosine]
Result: 23.2 % (wt %)

Q: Now the same for COc1nc(N)nc2c1ncn2[C@H]1CC[C@@H](CO)O1 [Example 2, 6-methoxy-2′,3′-dideoxyguanosine]
Result: 12.5 % (wt %)
